Recorded Ratio IC50, one value per entry.
Assay: Selectivity ratio of IC50 for MMP2 to IC50 for MMP13
Respond with the number and no other words.

- CNc1cccc2oc(C(=O)Nc3ccc(-c4ccc(S(=O)(=O)N[C@H](C(=O)O)C(C)C)cc4)cc3)c(C)c12: 108
- Cc1c(C(=O)Nc2ccc(-c3ccc(S(=O)(=O)N[C@H](C(=O)O)C(C)C)cc3)cc2)oc2cccc(C#N)c12: 157
- Cc1c(C(=O)Nc2ccc(-c3ccc(S(=O)(=O)N[C@H](C(=O)O)C(C)C)cc3)cc2)oc2cccc(CCCO)c12: 621

Field Ratio IC50 (entry COc1c(Br)ccc2oc(C(=O)Nc3ccc(-c4ccc(S(=O)(=O)N[C@H](C(=O)O)C(C)C)cc4)cc3)c(C)c12 ) reads 739

CC(=O)Nc1cccc2oc(C(=O)Nc3ccc(-c4ccc(S(=O)(=O)N[C@H](C(=O)O)C(C)C)cc4)cc3)c(C)c12 yielded Ratio IC50 of 152

The measured Ratio IC50 associated with COc1cccc2oc(C(=O)Nc3ccc(-c4ccc(S(=O)(=O)N[C@H](C(=O)O)C(C)C)cc4)cc3)c(C)c12 reads 110

For record Cc1c(C(=O)Nc2ccc(-c3ccc(S(=O)(=O)N[C@H](C(=O)O)C(C)C)cc3)cc2)oc2cccc(N)c12 the listed Ratio IC50 is 75

----------
Target: albumin (Oryctolagus cuniculus)
Sequence (P49065 whole entry): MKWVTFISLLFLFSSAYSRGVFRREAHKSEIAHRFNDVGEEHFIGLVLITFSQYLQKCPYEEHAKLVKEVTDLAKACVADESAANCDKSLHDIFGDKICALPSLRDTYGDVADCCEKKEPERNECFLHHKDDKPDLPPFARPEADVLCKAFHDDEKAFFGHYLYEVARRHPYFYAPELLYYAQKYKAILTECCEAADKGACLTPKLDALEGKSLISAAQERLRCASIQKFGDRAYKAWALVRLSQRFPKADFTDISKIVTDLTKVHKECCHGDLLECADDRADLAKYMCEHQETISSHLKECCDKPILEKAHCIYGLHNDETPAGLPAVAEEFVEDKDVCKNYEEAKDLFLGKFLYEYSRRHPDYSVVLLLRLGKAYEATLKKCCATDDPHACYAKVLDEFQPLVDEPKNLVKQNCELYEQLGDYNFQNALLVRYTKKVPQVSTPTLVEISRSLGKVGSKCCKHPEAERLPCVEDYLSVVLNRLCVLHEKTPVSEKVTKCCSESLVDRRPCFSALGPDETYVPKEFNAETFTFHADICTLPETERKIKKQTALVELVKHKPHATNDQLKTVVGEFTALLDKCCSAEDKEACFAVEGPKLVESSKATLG
Assay: Protein binding in rabbit serum albumin by equilibrium dialysis assay
Format: ADME
Settings: read-out: PB
property: fraction unbound

Sure, the documented fraction unbound for COc1c(Br)ccc2oc(C(=O)Nc3ccc(-c4ccc(S(=O)(=O)N[C@H](C(=O)O)C(C)C)cc4)cc3)c(C)c12 is < 0.01

----------
Target: A disintegrin and metalloproteinase with thrombospondin motifs 4 (Homo sapiens)
Sequence (O75173 whole entry): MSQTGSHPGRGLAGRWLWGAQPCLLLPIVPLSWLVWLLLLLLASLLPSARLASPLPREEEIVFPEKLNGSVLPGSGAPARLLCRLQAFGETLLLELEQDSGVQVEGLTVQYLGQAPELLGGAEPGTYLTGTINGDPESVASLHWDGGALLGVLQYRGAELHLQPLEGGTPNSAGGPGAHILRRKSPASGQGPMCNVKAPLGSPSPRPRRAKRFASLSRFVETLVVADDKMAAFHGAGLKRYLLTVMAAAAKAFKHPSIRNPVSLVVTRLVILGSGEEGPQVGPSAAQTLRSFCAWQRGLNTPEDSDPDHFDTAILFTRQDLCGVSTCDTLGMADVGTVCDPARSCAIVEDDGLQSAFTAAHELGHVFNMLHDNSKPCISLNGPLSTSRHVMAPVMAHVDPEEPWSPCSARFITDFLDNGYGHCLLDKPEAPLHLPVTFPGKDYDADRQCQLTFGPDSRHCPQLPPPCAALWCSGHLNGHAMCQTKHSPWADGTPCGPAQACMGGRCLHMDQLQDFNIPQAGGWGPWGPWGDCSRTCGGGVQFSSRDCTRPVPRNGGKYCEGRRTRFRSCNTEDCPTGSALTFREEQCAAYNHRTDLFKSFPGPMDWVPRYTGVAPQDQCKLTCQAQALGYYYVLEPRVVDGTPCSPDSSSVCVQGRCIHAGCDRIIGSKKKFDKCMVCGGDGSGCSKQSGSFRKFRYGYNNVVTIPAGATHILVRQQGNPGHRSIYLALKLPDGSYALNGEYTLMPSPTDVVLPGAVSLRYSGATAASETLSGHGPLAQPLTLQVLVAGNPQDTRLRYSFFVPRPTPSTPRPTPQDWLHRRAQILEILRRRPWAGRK
property: pIC50
Please report pIC50 as the negative decimal logarithm of the molar concentration, giving only the number.

response.value for Cc1c(C(=O)Nc2ccc(-c3ccc(S(=O)(=O)N[C@H](C(=O)O)C(C)C)cc3)cc2)oc2cccc(NS(C)(=O)=O)c12 (field: pIC50) = 5.66

----------
Molecular target: Matrix metalloproteinase-9 (Homo sapiens)
Sequence (P14780 whole entry): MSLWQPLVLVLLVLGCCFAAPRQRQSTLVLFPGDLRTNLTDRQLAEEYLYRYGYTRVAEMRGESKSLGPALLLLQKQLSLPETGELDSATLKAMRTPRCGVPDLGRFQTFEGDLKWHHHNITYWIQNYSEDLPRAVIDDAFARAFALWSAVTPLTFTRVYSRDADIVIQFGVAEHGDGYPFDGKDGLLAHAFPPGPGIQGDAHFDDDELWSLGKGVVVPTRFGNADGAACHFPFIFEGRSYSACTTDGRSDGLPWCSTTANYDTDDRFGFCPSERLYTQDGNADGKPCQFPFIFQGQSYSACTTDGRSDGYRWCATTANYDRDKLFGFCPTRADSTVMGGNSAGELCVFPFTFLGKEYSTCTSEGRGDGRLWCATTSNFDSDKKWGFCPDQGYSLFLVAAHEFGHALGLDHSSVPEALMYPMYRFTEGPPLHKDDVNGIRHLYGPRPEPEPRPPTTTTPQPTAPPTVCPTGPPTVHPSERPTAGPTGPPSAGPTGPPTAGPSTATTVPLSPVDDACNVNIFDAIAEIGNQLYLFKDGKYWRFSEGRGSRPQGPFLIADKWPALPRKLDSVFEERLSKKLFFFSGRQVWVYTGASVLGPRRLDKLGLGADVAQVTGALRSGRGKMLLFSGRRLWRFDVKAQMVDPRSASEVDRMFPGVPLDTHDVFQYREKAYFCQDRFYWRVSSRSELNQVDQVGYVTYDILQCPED
pIC50: −log10 of the molar value.
property: pIC50

Observed pIC50 on Matrix metalloproteinase-9 (Homo sapiens), entry Cc1c(C(=O)Nc2ccc(-c3ccc(S(=O)(=O)N[C@H](C(=O)O)C(C)C)cc3)cc2)oc2cccc(NS(C)(=O)=O)c12 , equals < 5.00

Attribution: ChEMBL document CHEMBL1153501
